- Substrate: O=C(O)C(=O)C[C@H](O)CO
- procedure-text: purified protein, by the assay type
- Set-up: coupled assay with PpKGSADH, NADH formation at 340 nm, Michaelis-Menten fit, 25 °C, pH 7.5
- experimental-context: pH 7.5; 25.0 °C
- Method: To determine dehydratase activity, a coupled-assay with PpKGSADH as auxiliary enzyme was used to link the oxidation of KGSA to α-KG using NAD^+, as was described in a previous study (Beer et al. [2017]). The measurement was performed in a 96-well F-bottom plate (Greiner Bio-One, Germany). 20 μL of a diluted enzyme was added to a 96-well plate. […]
Reported Km values for the following proteins.
Please give a number only; it is taken to be in mM.

Solved entries (count: 3):
protein	Km / mM
CnL-KdpD (Nhis) (Cupriavidus necator H16) (protein, N-terminal His6 tag (kept), pET vector, E. coli BL21(DE3), HisTrap purified; strain given inconsistently (H16 gDNA vs N-1)) MTRTPSPTVYRGVFPVAPTVFDAQGGLDLDGQRRCIDFMIDAGSHGICILANFSEQFVLSDDERNVLMKTVLEHVDGRVPVIVTTTHFSSRLCAERSRAAQDAGAAMVMVMPPYHGATIRVPERSIYEFFATVSDAIDIPIMIQDAPVSGTTLSAPFLARMAREIGNVSYFKIEVPQAAAKLRELIELGGDAIVGPWDGEEAITLMADLEAGATGAMTGAGFPDGIRQILDAWQAGDAELAAQRYQQWLPLINYENRQGWLATSKVLMQAGGVIASDAVRHPLQPMHPATREGLLKIARRLDPLVLRWAR	4.08
CnL-KdpD (Chis) (Cupriavidus necator H16) (protein, C-terminal His6 tag (kept), pET vector, E. coli BL21(DE3), HisTrap purified; strain given inconsistently (H16 gDNA vs N-1)) MTRTPSPTVYRGVFPVAPTVFDAQGGLDLDGQRRCIDFMIDAGSHGICILANFSEQFVLSDDERNVLMKTVLEHVDGRVPVIVTTTHFSSRLCAERSRAAQDAGAAMVMVMPPYHGATIRVPERSIYEFFATVSDAIDIPIMIQDAPVSGTTLSAPFLARMAREIGNVSYFKIEVPQAAAKLRELIELGGDAIVGPWDGEEAITLMADLEAGATGAMTGAGFPDGIRQILDAWQAGDAELAAQRYQQWLPLINYENRQGWLATSKVLMQAGGVIASDAVRHPLQPMHPATREGLLKIARRLDPLVLRWAR	6.40
HsL-KdpD (Herbaspirillum seropedicae SmR1) (protein, N-terminal His6 tag (kept), pET vector, E. coli BL21(DE3), HisTrap purified) MSTPLYRGVFPVAPTIFDANGKLDLEGQKRAIDFMIDAGSNGLCILANFSEQFVLSDEERVQVQNTVLEHVAGRVPVIVTTTHYGSQICAERSRAAQDAGAAMVMVMPPYHGATFRVPEKQIYEFYKHVSDAIDIPIMIQDAPVAGTPLSAPFLARMAKEIEQVSYFKIETAGAASKLRDLIELGGDAVVGPWDGEEAITLIPDLDAGATGAMTGGGYPDGIRKIVDAYFAGDIEKAAELYMQWLPLINYENRQCGLSACKALMLEGGVIKSDMLRHPQPPLHPKVREGLLRVARRLDPLVLSWGR	4.41

Kindly consider the entry below.
Ask | Returns the measured Km for the input protein. Input: AbL-KdpD (Azospirillum brasilense) (protein, N-terminal His6 tag (kept), codon-optimised synthetic gene, E. coli BL21(DE3), HisTrap purified, lower purity) MTSSSTPRHRGIFPVVPTTFADTGELDLASQKRAVDFMIDAGSDGLCILANFSEQFAITDDERDVLTRTILEHVAGRVPVIVTTSHYSTQVCAARSLRAQQLGAAMVMAMPPYHGATFRVPEAQIFEFYARVSDAIAIPIMVQDAPASGTALSAPFLARMAREIEQVAYFKIETPGAANKLRELIRLGGDAIEGPWDGEEAITLLADLHAGATGAMTGGGFPDGIRPILEAWREGRHDDAYARYQAWLPLINHENRQSGILTAKALMREGGVIASERPRHPMPELHPDTRAELLAIARRLDPLVLRWAH
Reply | 6.81
